Data origin: paper PMC9415015

We begin with a simple list: items and their reported Cytotoxicity index IC50 ± SE, Hek-293.
Tested on: Hek-293 cells
Assay: MTT test, human embryonic kidney cells
Assay type: cell-based
Details: 72 h incubation
Note: unit µM is implicit; provide only the numeric part.

Recorded Cytotoxicity index IC50 ± SE, Hek-293, per entry:
>>> df
                                   molecule  experimental_result
0  CCOC(=O)c1cnn2c1NC(CC)=C([N+](=O)[O-])C2c1ccc([N+](=O)[O-])cc1 (centres unmarked) [Compound 5f]                35.86
1  CCC1=C([N+](=O)[O-])C(c2cccs2)n2ncc(C#N)c2N1 (centres unmarked) [Compound 5k]               107.57
2  CC1=C([N+](=O)[O-])C(c2ccccc2)n2nc(C(F)(F)F)nc2N1 (centres unmarked) [Compound 6d]                50.07
3  CSc1nc2n(n1)C(c1ccccc1)C([N+](=O)[O-])=C(C)N2 (centres unmarked) [Compound 6b]               237.40
4  CCC1=C([N+](=O)[O-])C(c2ccc(OC)cc2)n2ncc(C#N)c2N1 (centres unmarked) [Compound 5i]                69.52
5  O=[N+]([O-])C1=CNc2ncnn2C1c1ccccc1 (centres unmarked) [Compound 6a]              1131.79
6  N#Cc1cnn2c1NC=C([N+](=O)[O-])C2c1ccccc1 (centres unmarked) [Compound 5g]               483.09
7  CCC1=C([N+](=O)[O-])C(c2ccc([N+](=O)[O-])cc2)n2nc(C(F)(F)F)nc2N1 (centres unmarked) [Compound 6e]                54.16
8  CCC1=C([N+](=O)[O-])C(c2ccc([N+](=O)[O-])cc2)n2nc(SC)c(C#N)c2N1 (centres unmarked) [Compound 5n]                78.70
9  CSc1nn2c(c1C#N)NC=C([N+](=O)[O-])C2c1ccccc1 (centres unmarked) [Compound 5l]               162.30

Note: attention shifts to another entry.
// lookup Cytotoxicity index IC50 ± SE, Hek-293 | system=Hek-293 cells | key= CCOC(=O)c1cnn2c1NC(CC)=C([N+](=O)[O-])C2c1ccccc1 (centres unmarked) [Compound 5e]
222.84
